# Tested on: KU812 (Chronic Myelogenous Leukemia)
# measurement_notes: combination Emax (second highest fraction inhibited in the dose matrix, 72 h); higher = more inhibition; extreme values may be limits of the assay
measurement_type: combination Emax
Numbers only.

Worked cases, combination Emax given:
[
  {
    "compound": "C[C@@H](Oc1cc(-c2cnn(C3CCNCC3)c2)cnc1N)c1c(Cl)ccc(F)c1Cl [Crizotinib] + CC1=C(C(=CC=C1)Cl)NC(=O)C2=CN=C(S2)NC3=CC(=NC(=N3)C)N4CCN(CC4)CCO [Dasatinib] (first compound max 10 µM, 7x7, partner max 2 µM)",
    "assayed_system": "KU812 (Chronic Myelogenous Leukemia)",
    "meas_value": 1
  },
  {
    "compound": "Cc1c2c(nn1C)CSCc1cc(n(C)n1)CSc1cc(c3ccccc3c1)OCCCc1c(C(=O)O)n(C)c3c-2c(Cl)ccc13 [AZD5991] + Nc1ccn([C@@H]2O[C@H](CO)[C@@H](O)C2(F)F)c(=O)n1 [Gemcitabine] (first compound max 1 µM, 7x7, partner max 0.3 µM)",
    "assayed_system": "KU812 (Chronic Myelogenous Leukemia)",
    "meas_value": 0.842
  },
  {
    "compound": "N#Cc1cnc(Nc2cc(NC[C@H]3CNCCO3)c(C(F)(F)F)cn2)cn1 [SRA737] + Nc1ccn([C@@H]2O[C@H](CO)[C@@H](O)C2(F)F)c(=O)n1 [Gemcitabine] (first compound max 10 µM, 7x7, partner max 0.3 µM)",
    "assayed_system": "KU812 (Chronic Myelogenous Leukemia)",
    "meas_value": 0.813
  },
  {
    "compound": "CN(CCO)CC[C@H](CSc1ccccc1)Nc1ccc(S(=O)(=O)NC(=O)c2ccc(N3CCC([C@@H](O)c4ccccc4-c4ccc(Cl)cc4)CC3)cc2)cc1S(=O)(=O)C(F)(F)F [AZD4320] + C[C@@H](Nc1cc(F)cc(F)c1)c1cc(C(=O)N(C)C)cc2c(=O)cc(N3CCOCC3)oc12 [AZD8186] (first compound max 1 µM, 7x7, partner max 3 µM)",
    "assayed_system": "KU812 (Chronic Myelogenous Leukemia)",
    "meas_value": 0.705
  },
  {
    "compound": "COc1cc2c(cc1OCCCCCOc1cc3c(cc1OC)C(=O)N1C=C(C)C[C@H]1C=N3)N=C[C@@H]1CC(C)=CN1C2=O [SG3199] + O=C(c1cc(Cc2n[nH]c(=O)c3ccccc23)ccc1F)N1CCN(C(=O)C2CC2)CC1 [Olaparib] (first compound max 0.001 µM, 7x7, partner max 10 µM)",
    "assayed_system": "KU812 (Chronic Myelogenous Leukemia)",
    "meas_value": 0.192
  },
  {
    "compound": "CN(CCO)CC[C@H](CSc1ccccc1)Nc1ccc(S(=O)(=O)NC(=O)c2ccc(N3CCC([C@@H](O)c4ccccc4-c4ccc(Cl)cc4)CC3)cc2)cc1S(=O)(=O)C(F)(F)F [AZD4320] + Nc1ccn([C@@H]2O[C@H](CO)[C@@H](O)C2(F)F)c(=O)n1 [Gemcitabine] (first compound max 1 µM, 7x7, partner max 0.3 µM)",
    "assayed_system": "KU812 (Chronic Myelogenous Leukemia)",
    "meas_value": 0.954
  },
  {
    "compound": "COc1nnc2ccc(N3CCC(c4ccc(OCCN5CCN(C)C(=O)[C@H]5C)cc4)CC3)nn12 [AZD5153] + Cc1c2c(nn1C)CSCc1cc(n(C)n1)CSc1cc(c3ccccc3c1)OCCCc1c(C(=O)O)n(C)c3c-2c(Cl)ccc13 [AZD5991] (first compound max 1 µM, 7x7, partner max 1 µM)",
    "assayed_system": "KU812 (Chronic Myelogenous Leukemia)",
    "meas_value": 0.987
  },
  {
    "compound": "CC(=O)Nc1cccc(-n2c(=O)n(C3CC3)c(=O)c3c(Nc4ccc(I)cc4F)n(C)c(=O)c(C)c32)c1 [Trametinib] + Cc1nc(-c2cn3c(n2)-c2ccc(-c4cnn(C(C)(C)C(N)=O)c4)cc2OCC3)n(C(C)C)n1 [Taselisib] (first compound max 1 µM, 7x7, partner max 10 µM)",
    "assayed_system": "KU812 (Chronic Myelogenous Leukemia)",
    "meas_value": 0.921
  }
]

Record combination Emax for all entries; do not skip any.
1. CC1(C)CCC(CN2CCN(c3ccc(C(=O)NS(=O)(=O)c4ccc(NCC5CCOCC5)c([N+](=O)[O-])c4)c(Oc4cnc5[nH]ccc5c4)c3)CC2)=C(c2ccc(Cl)cc2)C1 [Venetoclax] + C[C@@H]1COCCN1C2=NC(=NC(=C2)C3(CC3)[S@](=N)(=O)C)C4=C5C=CNC5=NC=C4 [AZD6738] (first compound max 1 µM, 7x7, partner max 10 µM)
2. C[C@@H]1COCCN1c1cc(C2([S@](C)(=N)=O)CC2)nc(-c2ccnc3[nH]ccc23)n1 [AZD6738] + O=C(c1cc(Cc2n[nH]c(=O)c3ccccc23)ccc1F)N1CCN(C(=O)C2CC2)CC1 [Olaparib] (first compound max 10 µM, 7x7, partner max 10 µM)
3. NC1(C(=O)N[C@@H](CCO)c2ccc(Cl)cc2)CCN(c2ncnc3[nH]ccc23)CC1 [Capivasertib] + C[C@@H]1COCCN1C2=NC(=NC(=C2)C3(CC3)[S@](=N)(=O)C)C4=C5C=CNC5=NC=C4 [AZD6738] (first compound max 10 µM, 7x7, partner max 10 µM)
4. CN(C)CCCOc1ccc(-c2ccc3ncc4c(c3c2)n(C2CCOCC2)c(=O)n4C)cn1 [AZD0156] + O=C(c1cc(Cc2n[nH]c(=O)c3ccccc23)ccc1F)N1CCN(C(=O)C2CC2)CC1 [Olaparib] (first compound max 3 µM, partner max 3 µM)
5. O=C(c1cc(Cc2n[nH]c(=O)c3ccccc23)ccc1F)N1CCN(C(=O)C2CC2)CC1 [Olaparib] + Cc1c2c(nn1C)CSCc1cc(n(C)n1)CSc1cc(c3ccccc3c1)OCCCc1c(C(=O)O)n(C)c3c-2c(Cl)ccc13 [AZD5991] (first compound max 10 µM, 7x7, partner max 1 µM)

A)
1: 0.83; 2: 0.806; 3: 0.851; 4: 0.64; 5: 0.784
